Values were extracted from paper PMC5797146.

# testedSystem: T1, Clostridium difficile toxin A (Clostridioides difficile …, UniProt P16154)
# T1 construct: also called TcdA
# assayOverview: SPR
# testContext: both partners purified
readoutKind: koff (s⁻¹)
Supply the numeric figure in s⁻¹, leaving out any unit text.

Would you please look over these solved cases?
A26.8 VHH R104W (VHH, source: E. coli TG1, periplasmic extract, purified (IMAC, SEC)) VHH: QVKLEESGGGLVQAGGSLRLSCAASERTFSRYPVAWFRQAPGAEREFVAVISSTGTSTYYADSVKGRFTISRDNAKVTVYLQMNNLKREDTAVYFCAVNSQRTWLQDPNEYDYWGQGTQVTVSS; 0.055
A26.8 VHH T54R (VHH, source: E. coli TG1, periplasmic extract, purified (IMAC, SEC)) VHH: QVKLEESGGGLVQAGGSLRLSCAASERTFSRYPVAWFRQAPGAEREFVAVISSRGTSTYYADSVKGRFTISRDNAKVTVYLQMNNLKREDTAVYFCAVNSQRTRLQDPNEYDYWGQGTQVTVSS; 0.044
A26.8 VHH T56R, Q101K, T103R (VHH, also called lead triple mutant; source: E. coli TG1, periplasmic extract, purified (IMAC, SEC)) VHH: QVKLEESGGGLVQAGGSLRLSCAASERTFSRYPVAWFRQAPGAEREFVAVISSTGRSTYYADSVKGRFTISRDNAKVTVYLQMNNLKREDTAVYFCAVNSKRRRLQDPNEYDYWGQGTQVTVSS; 0.024

# evaluate next
GET /values?readout=koff&item= A26.8 VHH T56R, Q101K (VHH, source: E. coli TG1, periplasmic extract, purified (IMAC, SEC)) VHH: QVKLEESGGGLVQAGGSLRLSCAASERTFSRYPVAWFRQAPGAEREFVAVISSTGRSTYYADSVKGRFTISRDNAKVTVYLQMNNLKREDTAVYFCAVNSKRTRLQDPNEYDYWGQGTQVTVSS
0.05
